test system: Staphylococcus aureus 209 P JC-1; experiment: Minimum inhibitory concentration (MIC); type: cell-based; details: 209PJC1; Staphylococcus aureus 209 P JC-1; bacterial suspension 10^6 cells/ml; sodium salts tested; read-out: Minimum inhibitory concentration
Threshold check on MIC: strictly below 0.8 µg/mL is Condition met; on or above 0.8 µg/mL is Condition not met.

Worked examples, 8 compounds total:
CCOC(=O)Oc1ccc(C(=O)NC(C(=O)N[C@@H]2C(=O)N3C(C(=O)O)=C(CSc4nnnn4C)CS[C@H]23)c2csc(N)n2)cc1OC(=O)OCC (mixture of isomers) [Example 5]    Condition met
CC(=O)OCC1=C(C(=O)O)N2C(=O)[C@@H](NC(=O)C(NC(=O)c3ccc(OC(C)=O)cc3)c3csc(N)n3)[C@H]2SC1 (mixture of isomers) [Example 17]    Condition met
CC(=O)Oc1cccc(C(=O)NC(C(=O)N[C@@H]2C(=O)N3C(C(=O)O)=C(CSc4nnnn4C)CS[C@H]23)c2csc(N)n2)c1OC(C)=O (mixture of isomers) [Example 4]    Condition not met
CC(=O)OCC1=C(C(=O)O)N2C(=O)[C@@H](NC(=O)C(NC(=O)c3cccc(O)c3O)c3csc(N)n3)[C@H]2SC1 (mixture of isomers) [Example 21]    Condition not met
CC(=O)OCC1=C(C(=O)O)N2C(=O)[C@@H](NC(=O)C(NC(=O)c3ccccc3O)c3csc(N)n3)[C@H]2SC1 (mixture of isomers) [Example 22]    Condition met
CO[C@@]1(NC(=O)C(NC(=O)c2ccc(OC(C)=O)c(OC(C)=O)c2)c2csc(N)n2)C(=O)N2C(C(=O)O)=C(COC(C)=O)CS[C@@H]21 (mixture of isomers) [Example 6]    Condition not met
CC(=O)OCC1=C(C(=O)O)N2C(=O)[C@@H](NC(=O)C(NC(=O)c3cccc(OC(C)=O)c3)c3csc(N)n3)[C@H]2SC1 (mixture of isomers) [Example 16]    Condition met
Cn1nnnc1SCC1=C(C(=O)O)N2C(=O)[C@@H](NC(=O)C(NC(=O)c3ccc(O)c(O)c3)c3csc(N)n3)[C@H]2SC1 (mixture of isomers) [Example 2]    Condition met

input: Is the reported MIC for CC(=O)OCC1=C(C(=O)O)N2C(=O)[C@@H](NC(=O)C(NC(=O)c3cccc(OC(C)=O)c3OC(C)=O)c3csc(N)n3)[C@H]2SC1 (mixture of isomers) [Example 14] strictly below 0.8 µg/mL?
output: Condition not met

input: Is the reported MIC for CO[C@@]1(NC(=O)C(NC(=O)c2cc(OC(C)=O)c(OC(C)=O)c(OC(C)=O)c2)c2csc(N)n2)C(=O)N2C(C(=O)O)=C(COC(C)=O)CS[C@@H]21 (mixture of isomers) [Example 7] strictly below 0.8 µg/mL?
output: Condition not met
